Tested on: ABHD6
ASSAY: pPAFAH inhibition and serine hydrolase selectivity, late-stage follow-up, selectivity assay for pPAFAH inhibitor project, biochemical, gel-based, FP-Rh fluorescence, mouse, HTS hit compounds (AID 588773)
EXPERIMENTAL_CONDITIONS: gel-based competitive ABPP, proteome, inhibition, at 1 µM, stronger effect = higher value
Mark n for inhibition values under 20%, and y for everything at or above.

These recorded examples may help you get a feel for the data.
STRUCTURE_SMILES_STRING | QUALITATIVE_LABEL
O=C(Oc1ccc(-c2ccccc2)cc1)N1CCCCC1 | y
O=C(Oc1ccc([N+](=O)[O-])cc1)N1CCC(N2CCCCC2)CC1 | y
O=C(Oc1ccc(-c2ccccc2)cc1)N1CCOCC1 | n

Problem: I'd appreciate it if you could say whether `O=C(Oc1nsnc1N1CCOCC1)N1CCOCC1` has inhibition at least equal to 20%.
Result: y

Problem: Request: `CN(C)C(=O)Oc1noc2cc(Cl)ccc12`
Result: y

Problem: Request: `CCCCOC(=O)c1ccc(OC(=O)N2CCOCC2)cc1`
Result: n

Problem: Request: `O=C(Oc1ccc(Oc2ccccc2)cc1)N1CCC(O)CC1`
Result: n

###

STUDY_SYSTEM: Platelet-activating factor acetylhydrolase (Mus musculus) (UniProt Q60963)
Sequence (Q60963 whole entry, looked up): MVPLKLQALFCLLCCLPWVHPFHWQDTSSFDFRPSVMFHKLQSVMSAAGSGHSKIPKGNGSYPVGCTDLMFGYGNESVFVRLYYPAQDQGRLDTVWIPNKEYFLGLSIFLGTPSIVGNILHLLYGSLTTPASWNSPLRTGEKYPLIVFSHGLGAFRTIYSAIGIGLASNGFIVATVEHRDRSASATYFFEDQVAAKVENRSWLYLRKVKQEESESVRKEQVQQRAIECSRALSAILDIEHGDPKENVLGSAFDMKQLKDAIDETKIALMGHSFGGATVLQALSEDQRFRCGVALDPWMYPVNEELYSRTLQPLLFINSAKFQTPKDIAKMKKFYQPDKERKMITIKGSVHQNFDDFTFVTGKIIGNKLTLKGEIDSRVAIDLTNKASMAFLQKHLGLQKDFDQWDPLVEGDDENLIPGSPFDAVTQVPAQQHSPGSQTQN
ASSAY: pPAFAH inhibition and serine hydrolase selectivity, late-stage follow-up, selectivity assay for pPAFAH inhibitor project, biochemical, gel-based, FP-Rh fluorescence, mouse, HTS hit compounds (AID 588773)
EXPERIMENTAL_CONDITIONS: gel-based competitive ABPP, proteome, pPAFAH, at 10 µM, stronger effect = higher value
Active and inactive are the calls of the source.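 The calls were made as follows: active = inhibition of plasma PAF acetylhydrolase at a set limit or more at 0.1 µM, with tenfold selectivity over all off-targets; inactive = inhibition below the limit or weaker selectivity.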
Overview of recorded inhibition for various compounds

Reference set, count: 4
STRUCTURE_SMILES_STRING | MEASURED_QUANTITY | RECORDED_MEASUREMENT
O=C(/C=C/c1cccs1)c1cc(Br)ccc1OC(=O)N1CCOCC1 | inhibition | 75% (inactive)
O=C(Oc1ccc(Oc2ccccc2)cc1)N1CCC(O)CC1 | inhibition | 92% (inactive)
CN(C)C(=O)Oc1noc2cc(Cl)ccc12 | inhibition | 100% (inactive)
O=C(Oc1ccc(-c2ccccc2)cc1)N1CCOCC1 | inhibition | 94% (inactive)

Shifting focus to the compound that follows.
Problem: Need inhibition, item `CCCCOC(=O)c1ccc(OC(=O)N2CCOCC2)cc1`
Result: 90% (inactive)

###

Tested on: FAAH
ASSAY: pPAFAH inhibition and serine hydrolase selectivity, late-stage follow-up, selectivity assay for pPAFAH inhibitor project, biochemical, gel-based, FP-Rh fluorescence, mouse, HTS hit compounds (AID 588773)
EXPERIMENTAL_CONDITIONS: gel-based competitive ABPP, proteome, inhibition, at 1 µM, stronger effect = higher value
Overview of recorded inhibition for various compounds
Lab book: enter the figure in %, no units written.

Reference set, count: 5
STRUCTURE_SMILES_STRING | MEASUREMENT_UNITS | inhibition
O=C(Oc1nsnc1N1CCOCC1)N1CCOCC1 | % | 80
O=C(Oc1ccc(-c2ccccc2)cc1)N1CCOCC1 | % | 31
O=C(Oc1ccc([N+](=O)[O-])cc1)N1CCC(N2CCCCC2)CC1 | % | 30
O=C(Oc1ccc(Oc2ccccc2)cc1)N1CCC(O)CC1 | % | 2
O=C(Oc1ccc(-c2ccccc2)cc1)N1CCCCC1 | % | 56

Problem: Need inhibition, item `CN(C)C(=O)Oc1noc2cc(Cl)ccc12`
Result: 100

Problem: Request: `O=C(/C=C/c1cccs1)c1cc(Br)ccc1OC(=O)N1CCOCC1`
Result: 18

Problem: Request: `CCCCOC(=O)c1ccc(OC(=O)N2CCOCC2)cc1`
Result: 30
